# System: HL-60(TB) leukemia
# PROTOCOL SUMMARY: NCI-60 one-dose screen, 48 h (100 = growth as untreated, 0 = no growth, -100 = all killed)
# PROTOCOL CONDITIONS: 10 µM unless noted
This is part of a sample that, as a whole, favours compounds with a hit. Of some 83,000 tested, about 20% had one in any assay.
Returns: string. Value is T if measured growth is below 10%, and F if it is greater than or equal to it.

Is 10% strictly greater than the compound's reported growth? compound: O[C@@H]1CO[C@H]2[C@@H]1OC[C@@H]2O
F

Input CCCCCCCCCCOC(=O)c1nn(C(C)=O)c2cc(C)c(C)cc12 ; condition: growth strictly below 10%. Does it hold?
F

Please determine if COc1ccc(OC)c(-c2cn3nc(-c4c[nH]c5ccc(Br)cc45)sc3n2)c1 is below 10% in terms of growth.
F

API: query returns whether the compound falls strictly under 10% in growth. Query: COc1c(B(O)O)cccc1-c1cc(C)c2c(ccc3[nH]ncc32)n1
F

Please let me know if COc1ccc(C2CC(c3ccc4c(c3)OCO4)=NN2C=O)cc1 (configuration not stated) shows growth below 10%.
F

Quick check: growth of COc1cc(OC)c2c(=O)c3c(CC=C(C)C)cc(OC)c(O)c3oc2c1 under 10%?
F

Here's an entry: Cc1cc(CSc2ccc(Cl)cc2)ccc1N . Is its growth below 10%?
T

Is the reported growth for NC(N)=NC(N)=Nc1ccccc1-c1ccccc1 strictly below 10%?
F

Determine if CCNCCCn1c2c(c3ccc([N+](=O)[O-])cc3c1=O)C(=O)c1cc(OC)cnc1-2 shows growth strictly lower than 10%.
T

is_below(growth, 10%) for Cc1ccc(-c2cc(-c3ccc(C)cc3)nc(NCCNc3ccnc4cc(Cl)ccc34)n2)cc1 ?
T

Field: below-cutoff. Rule: recorded growth strictly less than 10%. Subject: COc1ccc(C(=O)C(C)Br)cc1OC (configuration not stated)
F

Quick check: does COc1cc(NCC(O)CN(CC(C)C)CC(C)C)c2nc(C)ccc2c1 (configuration not stated) have growth under 10%?
F

Strictly below 10% in growth? COc1cc2c(c(OC)c1OC)-c1cc(I)c(O)cc1[C@@H](NC(C)=O)CC2
F

Hello, I'm reviewing records and need to know if growth of COc1ccc(-c2nc3sccn3c2-c2ccnc(NCCCNS(=O)(=O)c3ccc(C)cc3)n2)cc1 is below 10%. Could you check?
T

Determine whether this compound shows growth lower than 10% (ties excluded): CC(=O)N/C(=C1/OC(C(O)C(O)C(O)CO)CN1C)[P+](c1ccccc1)(c1ccccc1)c1ccccc1 (configuration not stated)
F

I wonder whether N#Cc1c(-c2cccc(Cl)c2)cc(-c2cccc(F)c2)[nH]c1=O has growth below 10%. Can you tell?
T

Quick check: growth of Cc1csc(-c2nnc(Nc3ccc(Oc4ncccc4-c4ccnc(N)n4)cc3)c3ccccc23)c1 under 10%?
F

Please let me know if CCCn1c(=S)sc2c1nc(C)n1c(Nc3ccccc3)nnc21 shows growth below 10%.
F

Is growth of COc1ccc(-c2nnc3c4[nH]cnc4ncn23)c(OC)c1 strictly below 10%?
F

Does O=S(=O)(Nc1ccc2ccccc2c1)N1CCCCC1 have growth strictly under 10%?
F

Just wondering, is growth of NCC(=O)CCC(=O)O below 10%?
F

----------
Assignment: determine reported growth for the given compounds.
# System: RPMI-8226 leukemia
# PROTOCOL SUMMARY: NCI-60 one-dose screen, 48 h (100 = growth as untreated, 0 = no growth, -100 = all killed)
# PROTOCOL CONDITIONS: 10 µM unless noted
This is part of a sample that, as a whole, favours compounds with a hit. Of some 83,000 tested, about 20% had one in any assay.
Number only, in %; omit the unit.

Please state recorded growth (tested on RPMI-8226 leukemia) of C[C@]12CCC(=O)CC1CC[C@@H]1C2CC[C@@]2(C)C1CC[C@@H]2OC(=O)CC[Se][Se]CCC(=O)O[C@H]1CCC2[C@@H]3CCC4CC(=O)CC[C@]4(C)C3CC[C@@]21C (some centres undefined)
93.6

Look up growth with RPMI-8226 leukemia for this compound: COc1cc(/C=C\c2cc(OC)c(OC)c(OC)c2)cc(N/C=C\C(=O)c2ccc(OC(F)(F)F)cc2)c1OC
11.8

Request - read-out growth | tested on RPMI-8226 leukemia | compound CNC(=O)O/N=C(/C)c1ccc(Cl)cc1
96.3

Under RPMI-8226 leukemia: growth value of CCCCCN(CCCCC)CC(O)c1ccc(C)c(Cl)c1 (centres undefined) ?
91.8

----------
# Test system: HL-60(TB) leukemia
# PROTOCOL SUMMARY: NCI-60 one-dose screen, 48 h (100 = growth as untreated, 0 = no growth, -100 = all killed)
# PROTOCOL CONDITIONS: 10 µM unless noted
About 83,000 compounds went through this panel and 20% of them were active in at least one assay; those are over-represented in the sample as a whole.
Field: growth. Provide a value for each of the molecules that follow.
Give just the numeric value; % need not be written.

Please give the measured growth for this molecule: CCOC(=O)c1nc2c3ccccc3cnn2c1C(=O)c1ccc(OC)cc1
102

Look at this molecule and give its reported growth. COc1cc(-c2n[nH]nc2-c2ccc3c(c2)OCCO3)cc(OC)c1OC
-5.41

Need growth, item O=c1[nH][nH]c(=O)c2cc([N+](=O)[O-])ccc12
96.2

Field request: growth | item: COc1cc(C2CC(c3c(C)[n+]([O-])c4ccccc4[n+]3[O-])=NN2)cc(OC)c1OC (configuration not stated)
97.8

Given O=C(NS(=O)(=O)c1ccc2ccccc2c1)n1cc(-c2ccncc2)c(-c2ccc(Cl)c(O)c2)n1 , state its recorded growth.
43.3

I would be grateful if you could share the reported growth for Cc1ccc(OCCn2c(C)nn(-c3ccc(Cl)cc3)c2=O)cc1 .
114

What does the data say about its growth? Entry: Oc1ccc(-c2nc3ccccc3s2)cc1CN(Cc1ccccn1)Cc1ccccn1
1.27

# get_value(readout='growth', item= O=C(OC1CCCC1)c1ccccc1Cl )
99.2

Returns the measured growth for the input molecule. Input: CC1=CC(=NC(=O)CBr)C=C/C1=N\S(=O)(=O)c1ccccc1
67.2

Form field: reported growth of Oc1cccc(CNC2CCCCC2)c1
107

Given the entry COc1cc(C(=O)N2CCN(c3ccccc3OC)CC2)c(N)cc1OCCCN1CCN(c2ccccc2OC)CC1 , report its measured growth.
85.3

Returns the measured growth for the input molecule. Input: CCN(CC)CCNc1ccc([N+](=O)[O-])c2sc3cc(Cl)ccc3c(=O)c12
54.7

May I ask what growth has been recorded for N#C/C(=C\c1ccc(Br)cc1)n1nnc2cc(Cl)c(Cl)cc21 ?
-0.568

Any idea what its growth is? The molecule is CCCCN(CCC)CCCCCCCCCCN1CCCc2ccccc21
42.2

// query growth value for entry Nc1cc2c(cc1Cl)C(=O)c1ccccc1C2=O
81

Please look up its growth: C=C(C=O)C1CCC2(C(=O)O)CCC3(C)C(CCC4C5(C)CCC(O)C(C)(C)C5CCC43C)C12 (configuration not stated)
6.38

Recorded growth for Cn1c(C(N)=O)cc2c1-c1nc(Nc3ccccc3)ncc1CCC2 , please?
40.6

// returns reported growth for input CCOC(CNC(=O)c1cccc([N+](=O)[O-])c1)OCC
105

For N#C/C(=N\Nc1ccc(Cl)cc1)C(=O)Nc1cc(-c2ccccc2)nn1-c1ccccc1 , what is its reported growth?
27.5

// growth lookup, key: N#Cc1nnn(-c2ccc(S(N)(=O)=O)cc2)c1NC(=O)CCl
77.5

Reported growth for CCCCCCCCCCCC(=O)OC(C)C(=O)NCCCC (configuration not stated) : what is it?
99.4

Recorded growth of CSc1nc2sc3cc(Cl)c(Cl)cc3n2c(=N)c1C#N , please.
110

Given the molecule COc1ccc(/C=C/c2nc(NCCCN(C)C)c3ccccc3n2)cc1 , what is its reported growth?
88.3

For the molecule shown here, O=c1c2ccccc2c(=O)c2c1sc1c(=O)c3ccc(O)cc3c(=O)c12 , give the reported growth.
-30.6

Item Cc1[nH]ccc2cc3nc4ccccc4c3cc12 has what recorded growth?
16.4

Looking for the measured growth of O=C(NC1CC(F)C1)c1cc2cccnc2n1-c1ccc(Cl)c(Cl)c1 (configuration not stated) , can you help?
97.2

// lookup growth for Cc1ccc2c3c(cccc13)-c1ccccc1C2=O
99

Given CN1CCN(Cc2ccc(NC(=O)c3cncc(C#Cc4c(N)ncc5cc(F)ccc45)c3)cc2C(F)(F)F)CC1 , state its recorded growth.
-46.2

Looking for the measured growth of Oc1ccc(C(c2ccc(O)cc2)C(Cl)(Cl)Cl)cc1 , can you help?
68.1

Which measured growth value corresponds to O=C(Nc1ccncc1)C(=O)c1cn(S(=O)(=O)c2cccc(Cl)c2)c2ccccc12 ?
41.8

Which measured growth value corresponds to O=C1c2cc3c(cc2-c2c1c1ccc(Cl)cc1c(=O)n2CCCN1CCOCC1)OCO3 ?
16.7

Recorded growth of CN(C)CCN1C(=O)c2cccc3c(-c4ccc5ncn(C6CCCCC6)c5c4)ccc(c23)C1=O , please.
13.8

So what's the measured growth for this one? COc1ccc(/C=C2\SC(=S)N(CCCN3CCOCC3)C2=O)c(OC)c1
83.1

If you can, please state the reported growth value of OCCN1CCN(CC/C=C2/c3ccccc3Sc3ccc(C(F)(F)F)cc32)CC1 .
73.1

For the molecule shown here, COc1ccc(/C(C)=C(\c2ccc(OCCN3CCOCC3)cc2)c2ccc(OC(=O)C3CCCCC3)cc2)cc1 , give the reported growth.
126

Quick check: growth of CCOC(=O)c1ccc(NC(=S)P(=O)(c2ccccc2)c2ccccc2)cc1 ?
80.4

Return reported growth; argument: CCCCOc1ccc(/C=C2/SC(N3CCOCC3)=NC2=O)cc1OCC
101

I'd like to know its growth. The molecule in question is CCN1CCN(c2nc(C)cc(N(CCCNc3ccnc4cc(Cl)ccc34)Cc3ccc4c(c3)OCO4)n2)CC1
-60.4

Value lookup for growth; key = COc1cc(NC(N)=NCCC(C)(C)Oc2ccc(C(F)(F)F)cc2)ncc1C#N
-51.1

For the molecule shown here, O=C1/C(=C/c2ccccc2O)C(=S)SN1Cc1ccco1 , give the reported growth.
92

Returns the measured growth for the input molecule. Input: COc1cc(-c2cc(-c3ccc(Nc4nc(Nc5ccccc5)nc(Nc5ccc(Cl)cc5)n4)cc3)nc(N)n2)cc(OC)c1OC
96.8

Look up growth: CCOC(=O)N1CCN(c2nc(Nc3cc(C)[nH]n3)c3ccccc3n2)CC1
26.3

Source: PubChem BioAssay (NCI)
